The values you see were collected from ChEMBL document CHEMBL1961873.

Target: Tyrosine-protein kinase ITK/TSK (Homo sapiens);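 further: values are mean percent inhibition of ITK from the GSK PKIS screen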
Sequence (whole entry): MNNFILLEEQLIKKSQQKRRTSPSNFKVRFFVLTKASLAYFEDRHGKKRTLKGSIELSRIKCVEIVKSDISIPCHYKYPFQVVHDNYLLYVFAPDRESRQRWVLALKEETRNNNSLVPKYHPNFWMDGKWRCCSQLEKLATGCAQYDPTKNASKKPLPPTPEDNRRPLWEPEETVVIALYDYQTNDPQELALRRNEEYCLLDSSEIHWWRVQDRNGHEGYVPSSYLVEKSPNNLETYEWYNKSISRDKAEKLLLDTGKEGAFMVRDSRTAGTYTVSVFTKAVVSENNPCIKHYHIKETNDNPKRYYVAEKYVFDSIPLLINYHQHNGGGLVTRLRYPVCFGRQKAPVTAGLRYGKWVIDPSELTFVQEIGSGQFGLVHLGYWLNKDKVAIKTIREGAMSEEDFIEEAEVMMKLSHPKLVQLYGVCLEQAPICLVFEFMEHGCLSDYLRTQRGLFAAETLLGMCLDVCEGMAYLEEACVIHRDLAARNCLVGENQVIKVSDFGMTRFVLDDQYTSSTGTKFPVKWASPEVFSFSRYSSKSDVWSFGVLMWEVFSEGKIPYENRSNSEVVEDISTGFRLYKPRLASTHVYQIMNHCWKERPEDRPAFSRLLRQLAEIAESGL
Conditions: at 1 µM
Collected inhibition values appear next to each entry.
METRIC NAME: inhibition (%)

molecule_smiles=Fc1cccc(COc2ccc(Nc3ncnc4sc(-c5cccs5)cc34)cc2Cl)c1 experimental_result=1.32
molecule_smiles=O=C1NC(=O)C(c2ccccc2Cl)=C1Nc1cccc(O)c1 experimental_result=2.08
molecule_smiles=Cn1cc(C=C2C(=O)Nc3cccnc32)c2ccccc21 experimental_result=15.7
molecule_smiles=CCn1c(-c2nonc2N)nc2c(N3CCCC3)nccc21 experimental_result=-0.14
molecule_smiles=COc1ccc(COc2ccc(Cc3cnc(N)nc3N)cc2OC)cc1 experimental_result=2.31
molecule_smiles=Cc1nnc(-c2ccc(C)c(-c3ccc(C(=O)Nc4cccc(C#N)c4)cc3)c2)o1 experimental_result=0.58

* * *

Biological target: Mitogen-activated protein kinase 9 (Homo sapiens) (UniProt P45984);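 further: values are mean inhibition of JNK2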
Sequence (P45984 whole entry, looked up): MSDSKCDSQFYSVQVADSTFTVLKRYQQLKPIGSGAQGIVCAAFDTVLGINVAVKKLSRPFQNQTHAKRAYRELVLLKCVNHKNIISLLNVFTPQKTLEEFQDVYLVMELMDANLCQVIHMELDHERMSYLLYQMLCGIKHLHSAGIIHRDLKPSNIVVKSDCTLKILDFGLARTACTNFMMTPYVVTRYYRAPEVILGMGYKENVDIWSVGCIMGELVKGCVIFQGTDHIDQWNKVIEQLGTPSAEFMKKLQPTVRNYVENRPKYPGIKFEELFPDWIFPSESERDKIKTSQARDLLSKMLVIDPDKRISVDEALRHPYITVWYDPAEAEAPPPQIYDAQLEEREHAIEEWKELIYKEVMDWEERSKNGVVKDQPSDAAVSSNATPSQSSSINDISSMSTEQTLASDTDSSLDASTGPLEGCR
Conditions: at 0.1 µM
METRIC NAME: inhibition (%)

compound=CNC(=O)c1cncc(/C=C/c2c(Cl)cccc2Cl)c1 metric_name=inhibition unit_name=% experimental_result=4.08
compound=COc1cc2ncn(-c3cc(OCc4ccccc4C(F)(F)F)c(C(N)=O)s3)c2cc1OC metric_name=inhibition unit_name=% experimental_result=1.63
compound=CCn1c(-c2nonc2N)nc2cncc(C(=O)N3CCNCC3)c21 metric_name=inhibition unit_name=% experimental_result=5.31
compound=Nc1nc(-c2ccccn2)c(-c2ccc3ncccc3n2)s1 metric_name=inhibition unit_name=% experimental_result=2.16
compound=CS(=O)(=O)CCNCc1ccc(-c2ccc3ncnc(Nc4ccc(OCc5cccc(F)c5)c(C(F)(F)F)c4)c3c2)o1 metric_name=inhibition unit_name=% experimental_result=5.87
compound=Nc1ncnc2occ(-c3ccc(NC(=O)Nc4cccc(C(F)(F)F)c4)cc3)c12 metric_name=inhibition unit_name=% experimental_result=3.31
compound=Nc1ncnc2occ(-c3ccc(NC(=O)Nc4cc(C(F)(F)F)cc(C(F)(F)F)c4)cc3)c12 metric_name=inhibition unit_name=% experimental_result=2.13
compound=CCn1c(-c2nonc2N)nc2c(C#CC(C)(C)O)nc(OC[C@@H](N)c3ccccc3)cc21 metric_name=inhibition unit_name=% experimental_result=-0.01
compound="COc1ccc2cc(-c3c(-c4ccncc4)nc(-c4ccc([S+](C)[O-])cc4)n3C)ccc2c1 (centres undefined)" metric_name=inhibition unit_name=% experimental_result=1.55
